# tested target: T1, full-length human TIGIT on CHO-K1 cells (CHO-K1 human TIGIT) (human, UniProt Q495A1 22-244)
# T1 construct: NCBI XP_024309156.1; entry includes the signal peptide; also called high expression strain 1D2; medium expression strain 2D10
# T1 sequence: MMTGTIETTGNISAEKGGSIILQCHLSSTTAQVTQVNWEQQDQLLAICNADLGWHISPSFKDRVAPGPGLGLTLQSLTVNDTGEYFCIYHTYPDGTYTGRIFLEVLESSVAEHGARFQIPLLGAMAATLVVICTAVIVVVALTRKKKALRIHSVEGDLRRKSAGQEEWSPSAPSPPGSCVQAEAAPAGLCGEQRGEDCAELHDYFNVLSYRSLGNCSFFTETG
# method summary: FACS, high expression strain
pEC50: −log10 of the molar value.
readout label: pEC50

binder	recorded number
TIGIT-CHI-005 (antibody, V domains shown, human-mouse chimeric antibody) VH: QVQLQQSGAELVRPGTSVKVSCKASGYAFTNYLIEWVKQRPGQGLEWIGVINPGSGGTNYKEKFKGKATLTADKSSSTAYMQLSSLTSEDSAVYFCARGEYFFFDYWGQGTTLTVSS VL: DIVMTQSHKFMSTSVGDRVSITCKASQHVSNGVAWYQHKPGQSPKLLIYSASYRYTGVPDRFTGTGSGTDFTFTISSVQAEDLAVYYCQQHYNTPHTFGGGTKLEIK	9.47
